Test: Metabolic stability in human liver microsomes assessed as intrinsic clearance preincubated with NADPH and UDPGA for 5 mins followed by compound addition and measured upto 60 mins by LC-MS/MS analysis
Assay type: ADME, Microsome
Conditions: read-out: CLH
OBSERVABLE: microsomal CLint (µL/min/mg)
Entry rule: numbers only, all in µL/min/mg.

Would you please look over these solved cases?
# MOLECULE, microsomal CLint, µL/min/mg
records = [
    ("COc1ccc2cc(C(=O)Nc3ccc4c(c3)CN(C3CCC(=O)NC3=O)C4=O)ncc2c1 (stereo not given)", 584),
    ("COc1ccc2cc(C(=O)Nc3ccc4c(c3)CN(C3CCC(=O)NC3=O)C4=O)ccc2c1 (stereo not given)", 362),
    ("[2H]C([2H])([2H])Oc1ccc2cc(C(=O)Nc3ccc4c(c3)CN(C3CCC(=O)NC3=O)C4=O)ccc2c1 (stereo not given)", 290),
    ("COc1ccc2nc(C(=O)Nc3ccc4c(c3)CN(C3CCC(=O)NC3=O)C4=O)ccc2c1 (stereo not given)", 87.4),
]

Q) Data request, read-out microsomal CLint, for COc1ccc2cc(C(=O)Nc3ccc4c(c3)CN(C3CCC(=O)NC3=O)C4=O)ccc2n1 (stereo not given)
A) 108

Q) Data request, read-out microsomal CLint, for COc1ccc2cc(C(=O)Nc3ccc4c(c3)CN(C3CCC(=O)NC3=O)C4=O)cnc2c1 (stereo not given)
A) 68.4
